Listed molecules paired with reported LC50 (lethal concentration 50)
Tested on: SK-MEL-5
Test: Growth inhibition of human SK-MEL-5 cells
Type: functional

molecule	LC50 (lethal concentration 50)
COc1ccc(-n2n[n+](C)c3c2C(=O)c2ccccc2C3=O)cc1.O=S(=O)([O-])C(F)(F)F	610 nM
C[n+]1nn(-c2ccc(C(F)(F)F)cc2)c2c1C(=O)c1ccccc1C2=O.O=S(=O)([O-])C(F)(F)F	570 nM
C[n+]1nn(-c2ccc(F)cc2)c2c1C(=O)c1ccccc1C2=O.O=S(=O)([O-])C(F)(F)F	600 nM

====

Test system: NCI-H226
Test: Growth inhibition of human NCI-H226 cells
Type: functional
Conditions: read-out: LC50 (the source's name)
Listed compounds paired with reported CC50
resultType: CC50 (µM)

molecule	targetEntity	assayResult
C[n+]1nn(-c2ccc(F)cc2)c2c1C(=O)c1ccccc1C2=O.O=S(=O)([O-])C(F)(F)F	NCI-H226	23
C[n+]1nn(-c2ccc(C(F)(F)F)cc2)c2c1C(=O)c1ccccc1C2=O.O=S(=O)([O-])C(F)(F)F	NCI-H226	89.4
Cc1ccc(-n2n[n+](C)c3c2C(=O)c2ccccc2C3=O)cc1.O=S(=O)([O-])C(F)(F)F	NCI-H226	36.1
COc1ccc(-n2n[n+](C)c3c2C(=O)c2ccccc2C3=O)cc1OC.O=S(=O)([O-])C(F)(F)F	NCI-H226	6.85
C[n+]1nn(-c2ccccc2)c2c1C(=O)c1ccccc1C2=O.[Cl-]	NCI-H226	5.3
COc1cc(OC)cc(-n2n[n+](C)c3c2C(=O)c2ccccc2C3=O)c1.O=S(=O)([O-])C(F)(F)F	NCI-H226	7.76
COc1cc(-n2n[n+](C)c3c2C(=O)c2ccccc2C3=O)cc(OC)c1OC.O=S(=O)([O-])C(F)(F)F	NCI-H226	18

====

Tested on: NCI-H522
Assay: Growth inhibition of human NCI-H522 cells
Format: functional
Label satisfied when GI50 < 3 µM; otherwise not satisfied.

molecule	cat
C[n+]1nn(-c2ccc(C(F)(F)F)cc2)c2c1C(=O)c1ccccc1C2=O.O=S(=O)([O-])C(F)(F)F	not satisfied
C[n+]1nn(-c2ccccc2)c2c1C(=O)c1ccccc1C2=O.[Cl-]	not satisfied
COc1ccc(-n2n[n+](C)c3c2C(=O)c2ccccc2C3=O)cc1.O=S(=O)([O-])C(F)(F)F	satisfied
COc1cc(-n2n[n+](C)c3c2C(=O)c2ccccc2C3=O)cc(OC)c1OC.O=S(=O)([O-])C(F)(F)F	satisfied
COc1ccc(-n2n[n+](C)c3c2C(=O)c2ccccc2C3=O)cc1OC.O=S(=O)([O-])C(F)(F)F	satisfied
C[n+]1nn(-c2ccc(F)cc2)c2c1C(=O)c1ccccc1C2=O.O=S(=O)([O-])C(F)(F)F	not satisfied
Cc1ccc(-n2n[n+](C)c3c2C(=O)c2ccccc2C3=O)cc1.O=S(=O)([O-])C(F)(F)F	not satisfied
COc1cc(OC)cc(-n2n[n+](C)c3c2C(=O)c2ccccc2C3=O)c1.O=S(=O)([O-])C(F)(F)F	satisfied

====

Test: Growth inhibition of human HCC2998 cells
Format: functional
Conditions: HCC 2998
Listed compounds paired with reported GI50

molecule	GI50 / µM
COc1ccc(-n2n[n+](C)c3c2C(=O)c2ccccc2C3=O)cc1OC.O=S(=O)([O-])C(F)(F)F	1.65
COc1ccc(-n2n[n+](C)c3c2C(=O)c2ccccc2C3=O)cc1.O=S(=O)([O-])C(F)(F)F	0.45
C[n+]1nn(-c2ccc(F)cc2)c2c1C(=O)c1ccccc1C2=O.O=S(=O)([O-])C(F)(F)F	1.4
COc1cc(-n2n[n+](C)c3c2C(=O)c2ccccc2C3=O)cc(OC)c1OC.O=S(=O)([O-])C(F)(F)F	1.63

====

Listed molecules paired with reported GI50
Test system: HOP-62
Experiment: Growth inhibition of human HOP62 cells
Type: functional
resultType: GI50 (nM)

molecule	targetEntity	resultType	assayResult
COc1ccc(-n2n[n+](C)c3c2C(=O)c2ccccc2C3=O)cc1.O=S(=O)([O-])C(F)(F)F	HOP-62	GI50	980
COc1cc(-n2n[n+](C)c3c2C(=O)c2ccccc2C3=O)cc(OC)c1OC.O=S(=O)([O-])C(F)(F)F	HOP-62	GI50	1310
COc1cc(OC)cc(-n2n[n+](C)c3c2C(=O)c2ccccc2C3=O)c1.O=S(=O)([O-])C(F)(F)F	HOP-62	GI50	1510
Cc1ccc(-n2n[n+](C)c3c2C(=O)c2ccccc2C3=O)cc1.O=S(=O)([O-])C(F)(F)F	HOP-62	GI50	2160
COc1ccc(-n2n[n+](C)c3c2C(=O)c2ccccc2C3=O)cc1OC.O=S(=O)([O-])C(F)(F)F	HOP-62	GI50	1230
C[n+]1nn(-c2ccccc2)c2c1C(=O)c1ccccc1C2=O.[Cl-]	HOP-62	GI50	760
C[n+]1nn(-c2ccc(C(F)(F)F)cc2)c2c1C(=O)c1ccccc1C2=O.O=S(=O)([O-])C(F)(F)F	HOP-62	GI50	2120
C[n+]1nn(-c2ccc(F)cc2)c2c1C(=O)c1ccccc1C2=O.O=S(=O)([O-])C(F)(F)F	HOP-62	GI50	2400

====

Listed compounds paired with reported CC50
System: HOP-62
Test: Growth inhibition of human HOP62 cells
Assay type: functional
Settings: read-out: LC50 (the source's name)
resultType: CC50 (µM)

molecule	resultType	unitAnnotation	assayResult
C[n+]1nn(-c2ccc(F)cc2)c2c1C(=O)c1ccccc1C2=O.O=S(=O)([O-])C(F)(F)F	CC50	µM	32.9
COc1ccc(-n2n[n+](C)c3c2C(=O)c2ccccc2C3=O)cc1.O=S(=O)([O-])C(F)(F)F	CC50	µM	5.14
C[n+]1nn(-c2ccc(C(F)(F)F)cc2)c2c1C(=O)c1ccccc1C2=O.O=S(=O)([O-])C(F)(F)F	CC50	µM	26
COc1cc(-n2n[n+](C)c3c2C(=O)c2ccccc2C3=O)cc(OC)c1OC.O=S(=O)([O-])C(F)(F)F	CC50	µM	7.22
Cc1ccc(-n2n[n+](C)c3c2C(=O)c2ccccc2C3=O)cc1.O=S(=O)([O-])C(F)(F)F	CC50	µM	17.8
COc1cc(OC)cc(-n2n[n+](C)c3c2C(=O)c2ccccc2C3=O)c1.O=S(=O)([O-])C(F)(F)F	CC50	µM	6.08
COc1ccc(-n2n[n+](C)c3c2C(=O)c2ccccc2C3=O)cc1OC.O=S(=O)([O-])C(F)(F)F	CC50	µM	5.64
C[n+]1nn(-c2ccccc2)c2c1C(=O)c1ccccc1C2=O.[Cl-]	CC50	µM	5.57

====

Listed compounds paired with reported GI50
Assay: Growth inhibition of human UACC257 cells
Format: functional
Conditions: UACC-257
resultType: GI50 (nM)

molecule	assayResult
C[n+]1nn(-c2ccc(F)cc2)c2c1C(=O)c1ccccc1C2=O.O=S(=O)([O-])C(F)(F)F	600
COc1ccc(-n2n[n+](C)c3c2C(=O)c2ccccc2C3=O)cc1OC.O=S(=O)([O-])C(F)(F)F	1490
COc1ccc(-n2n[n+](C)c3c2C(=O)c2ccccc2C3=O)cc1.O=S(=O)([O-])C(F)(F)F	1450
Cc1ccc(-n2n[n+](C)c3c2C(=O)c2ccccc2C3=O)cc1.O=S(=O)([O-])C(F)(F)F	1850
C[n+]1nn(-c2ccc(C(F)(F)F)cc2)c2c1C(=O)c1ccccc1C2=O.O=S(=O)([O-])C(F)(F)F	3240
COc1cc(-n2n[n+](C)c3c2C(=O)c2ccccc2C3=O)cc(OC)c1OC.O=S(=O)([O-])C(F)(F)F	1370
COc1cc(OC)cc(-n2n[n+](C)c3c2C(=O)c2ccccc2C3=O)c1.O=S(=O)([O-])C(F)(F)F	1200
C[n+]1nn(-c2ccccc2)c2c1C(=O)c1ccccc1C2=O.[Cl-]	1700

====

Listed compounds paired with reported GI50
Test system: HCT-116
Assay: Growth inhibition of human HCT116 cells
Format: functional
resultType: GI50

molecule	assayResult
Cc1ccc(-n2n[n+](C)c3c2C(=O)c2ccccc2C3=O)cc1.O=S(=O)([O-])C(F)(F)F	1550 nM
C[n+]1nn(-c2ccc(F)cc2)c2c1C(=O)c1ccccc1C2=O.O=S(=O)([O-])C(F)(F)F	1500 nM
COc1ccc(-n2n[n+](C)c3c2C(=O)c2ccccc2C3=O)cc1.O=S(=O)([O-])C(F)(F)F	370 nM
C[n+]1nn(-c2ccccc2)c2c1C(=O)c1ccccc1C2=O.[Cl-]	320 nM
C[n+]1nn(-c2ccc(C(F)(F)F)cc2)c2c1C(=O)c1ccccc1C2=O.O=S(=O)([O-])C(F)(F)F	3420 nM

====

System: MDA-MB-435
Assay: Growth inhibition of human MDA-MB-435 cells
Format: functional
Label satisfied when GI50 < 200 nM; otherwise not satisfied.

molecule	cat
Cc1ccc(-n2n[n+](C)c3c2C(=O)c2ccccc2C3=O)cc1.O=S(=O)([O-])C(F)(F)F	satisfied
COc1ccc(-n2n[n+](C)c3c2C(=O)c2ccccc2C3=O)cc1.O=S(=O)([O-])C(F)(F)F	satisfied
COc1cc(OC)cc(-n2n[n+](C)c3c2C(=O)c2ccccc2C3=O)c1.O=S(=O)([O-])C(F)(F)F	not satisfied
C[n+]1nn(-c2ccc(C(F)(F)F)cc2)c2c1C(=O)c1ccccc1C2=O.O=S(=O)([O-])C(F)(F)F	not satisfied
COc1ccc(-n2n[n+](C)c3c2C(=O)c2ccccc2C3=O)cc1OC.O=S(=O)([O-])C(F)(F)F	satisfied
C[n+]1nn(-c2ccc(F)cc2)c2c1C(=O)c1ccccc1C2=O.O=S(=O)([O-])C(F)(F)F	not satisfied
COc1cc(-n2n[n+](C)c3c2C(=O)c2ccccc2C3=O)cc(OC)c1OC.O=S(=O)([O-])C(F)(F)F	satisfied
